Would you kindly list IC50 for each of these compounds?
Test system: purified recombinant human PARP (Homo sapiens)
Construct: purchased Trevigan (Gaithersburg, Md.)
Protocol summary: PARP enzyme assay (IC50)
Assay type: biochemical
Applied conditions: approximate IC50 values, [3H]NAD, read-out: IC50
The answer consists of two parts: a number and, after it, its unit.

Challenge: What does the record list as IC50 for Cn1c(-c2ccccc2)c2c3c(cccc31)C(=O)NCC2=O ?
Response given: 0.058 µM

Challenge: Next record, please: O=C1NCCn2c(CN3CC4CC3CN4Cc3ccccc3)nc3cccc1c32 (stereo not drawn)
Response given: 0.115 µM

Challenge: And then O=C1NC=Cc2c[nH]c3cccc1c23 , what is it?
Response given: 0.161 µM

Challenge: Another compound to check: O=C1NCCn2c(CN3CCc4ccccc4C3)nc3cccc1c32
Response given: 0.193 µM

Challenge: Follow-up item: Cn1cc2c3c(cccc31)C(=O)NN=C2
Response given: 0.146 µM

Challenge: Now this one: O=C(CN1CCC(N2CCCC2)CC1)Nc1ccc2[nH]c(=O)c3ccccc3c2n1
Response given: 0.142 µM

Challenge: Next compound: O=C1NN=Cn2cnc3cccc1c32
Response given: 20 µM

Challenge: // next record O=C1NCCn2c(CN3CCN(Cc4ccccc4)CC3)nc3cccc1c32
Response given: 2.19 µM

Challenge: Same lookup for CC(=O)OCc1ccc(-c2nc3cccc4c3n2CCNC4=O)o1 , please.
Response given: 0.068 µM

Challenge: Same thing, different compound: O=C1NN=C(CN2CCN(Cc3ccccc3)CC2)c2c[nH]c3cccc1c23
Response given: 0.141 µM

Challenge: And the next one, O=C1NCCN2CCc3cccc1c32 ?
Response given: 2.41 µM

Challenge: // repeat for O=C1NCCn2c(/C=C/c3ccccc3)nc3cccc1c32 and report
Response given: 0.071 µM

* * *

Test system: purified recombinant human PARP (Homo sapiens, UniProt P09874)
Construct: purchased Trevigan (Gaithersburg, Md.)
Sequence (P09874 whole entry): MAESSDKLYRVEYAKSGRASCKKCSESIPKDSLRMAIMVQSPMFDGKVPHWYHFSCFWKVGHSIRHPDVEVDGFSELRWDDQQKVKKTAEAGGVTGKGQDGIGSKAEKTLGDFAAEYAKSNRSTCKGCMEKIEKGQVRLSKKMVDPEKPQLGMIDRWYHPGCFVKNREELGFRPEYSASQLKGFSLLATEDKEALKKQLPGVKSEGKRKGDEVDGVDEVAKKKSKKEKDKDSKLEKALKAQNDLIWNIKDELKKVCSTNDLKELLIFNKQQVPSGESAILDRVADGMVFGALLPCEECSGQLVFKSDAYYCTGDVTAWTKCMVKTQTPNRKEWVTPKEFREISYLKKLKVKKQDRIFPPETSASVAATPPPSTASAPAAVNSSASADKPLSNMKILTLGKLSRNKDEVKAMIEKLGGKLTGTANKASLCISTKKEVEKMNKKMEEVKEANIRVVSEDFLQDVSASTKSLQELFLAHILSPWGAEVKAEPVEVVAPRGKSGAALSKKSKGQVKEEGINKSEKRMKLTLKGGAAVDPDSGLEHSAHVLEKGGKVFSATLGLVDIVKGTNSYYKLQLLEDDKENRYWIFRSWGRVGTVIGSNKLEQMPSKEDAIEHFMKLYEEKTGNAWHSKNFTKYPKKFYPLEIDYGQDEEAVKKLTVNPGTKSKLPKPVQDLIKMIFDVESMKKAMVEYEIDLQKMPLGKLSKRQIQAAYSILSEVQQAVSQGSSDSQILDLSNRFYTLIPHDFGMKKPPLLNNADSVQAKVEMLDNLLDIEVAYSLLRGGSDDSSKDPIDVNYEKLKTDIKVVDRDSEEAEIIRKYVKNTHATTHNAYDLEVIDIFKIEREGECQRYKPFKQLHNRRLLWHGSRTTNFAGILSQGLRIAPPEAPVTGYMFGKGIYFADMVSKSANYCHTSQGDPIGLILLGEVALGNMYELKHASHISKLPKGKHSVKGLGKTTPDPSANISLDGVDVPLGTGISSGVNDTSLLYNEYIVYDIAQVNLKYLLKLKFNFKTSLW
Protocol summary: PARP enzyme assay (IC50)
Assay type: biochemical
Applied conditions: approximate IC50 values, [3H]NAD, read-out: IC50
Assign a class from recorded IC50; defined classes: lo = under 100 nM, mid = from 100 nM up to 300 nM, hi = 300 nM and over

Challenge: // return the class label for O=C1NCCn2c(-c3cccc(C(=O)N4CC5CC4CN5Cc4ccccc4)c3)nc3cccc1c32 (centres unmarked)
Response given: hi

Challenge: Let us now turn to CN(C)Cc1nc2cccc3c2n1CCNC3=O
Response given: lo

Challenge: Consider next the compound O=C1NCCn2c(C#Cc3ccccc3)nc3cccc1c32 in the same way.
Response given: lo

Challenge: Input O=c1[nH]c2ccc(NCCN3CCOCC3)nc2c2ccccc12
Response given: hi

Challenge: And O=C1NCCn2c(-c3cccc(C(=O)N4CCN(Cc5ccc6c(c5)OCO6)CC4)c3)nc3cccc1c32 ?
Response given: hi

Challenge: Another compound: O=C1NCCn2c(C3CCCCC3)nc3cccc1c32
Response given: mid

Challenge: Consider next the compound O=C1NCCn2c(CN3CCOCC3)nc3cccc1c32 in the same way.
Response given: hi

Challenge: And the next one, COc1ccc(CC(C)c2nc3cccc4c3n2CCNC4=O)cc1 (centres unmarked) ?
Response given: mid

Challenge: Then what about the compound COc1ccc(/C=C/c2nc3cccc4c3n2CCNC4=O)cc1 ?
Response given: mid

Challenge: Now give it for O=C1NCCc2c(Br)[nH]c3cccc1c23 too.
Response given: lo

Origin of the recorded values: patent US7235557B2
